Values were extracted from PubChem BioAssay.

- Tested on: TRPC4 beta (transient receptor potential cation channel C4), mouse
- test details: activators of mouse TRPC4 channel, confirmation, cell-based, Fluo4 calcium, HEK293 TRPC4beta/mu-opioid, duplicates, 10 µM (AID 2426);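 further: percent rise of integrated ratio over buffer wells lacking compound which define 0%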
- experimental parameters: Fluo4 calcium fluorescence, at 10 µM; hits give high values
Activity calls are given as the source filed them.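 How the source made its calls: active means fluorescence ratio normalized to control raised more than 50% in primary screen plus both repeat runs; inactive means the rest.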
measured parameter: activation

Query :: Query for TRPC4 beta (transient receptor potential cation channel C4), mouse: what activation does the record show for CCn1c(=O)cc(OCC(=O)NCCCN2CC(C)CC(C)C2)c2ccccc21 (stereo not given) ?
Result :: 80% (active)

Query :: Lab note: need activation for `Cc1cccc(C(=O)NC(=S)NNC(=O)c2ccccc2Cl)c1` on TRPC4 beta (transient receptor potential cation channel C4), mouse, anyone have it?
Result :: 201% (active)

Query :: Item COc1ccc(C(CCNCc2ccc(N(C)C)cc2)c2ccccc2OC)cc1 (stereo not given) with TRPC4 beta (transient receptor potential cation channel C4), mouse - activation?
Result :: 133% (active)

Query :: Value wanted: activation (TRPC4 beta (transient receptor potential cation channel C4), mouse) of entry Cc1ccc(C2N(c3ccc(Cl)c(Cl)c3)C(=O)C3CCCN32)o1 (stereo not given)
Result :: 53% (active)

New cases:
Query :: Missing value: activation, TRPC4 beta (transient receptor potential cation channel C4), mouse, entry `OCCN1CCN(Cc2cc(Br)cc(Br)c2O)CC1` . Fill in?
Result :: 199% (active)

Query :: Value wanted: activation (TRPC4 beta (transient receptor potential cation channel C4), mouse) of entry COc1ccc(C(CNC(=O)CN2C(=O)NC3(CCCC3)C2=O)N(C)C)cc1 (stereo not given)
Result :: 121% (active)

Query :: What measured activation is associated with `CCCOc1ccc(C(=O)NNC(=S)NC(=O)c2ccccc2)cc1` on TRPC4 beta (transient receptor potential cation channel C4), mouse?
Result :: 152% (active)
